These entries and their values trace back to paper PMC10881500.

- subject.of.test: T1, Recombinant, purified TRBC2 (soluble αβ TCR with the β-chain constant domain TRBC2), SPR analyte (Homo sapiens, HA1.7 TCR with TRBC2)
- T1 construct: also called recombinant TRBC2; source: recombinant, purified
- assay.info: SPR; Biacore T200; antibody as human IgG1 captured with an anti-human capture kit on CM5 to 200 RU; TRBC1 or TRBC2 as analyte, 150 s contact, 300 s dissociation, 30 μl/min, 25 °C, HBS-P+ pH 7.4; 1:1 Langmuir model
- conditions: both partners purified
readout.type: pKd
Would you please state pKd, meaning minus log10 of the concentration in mol/L, as a bare number?

Query: Please look up its pKd: Mut2 (HuJovi-1 VH T28K, Y32F), human IgG1 (antibody, V domains shown, as the VH of m1 with the stated changes; positions in Kabat numbering; constant region of the human IgG1 heavy chain; as the light chain of m1; IgG1; also called Lys28/Phe32; Thr28Lys, Tyr32Phe double mutant; source: ExpiCHO, transient transfection, purified (MabSelect SuRe)) VH: QVQLVQSGAEVKKPGASVKVSCKASGYKFTGFVMHWVRQAPGQGLEWMGFINPYNDDIQSNERFRGRVTMTRDTSISTAYMELSRLRSDDTAVYYCARGAGYNFDGAYRFFDFWGQGTMVTVSS VL: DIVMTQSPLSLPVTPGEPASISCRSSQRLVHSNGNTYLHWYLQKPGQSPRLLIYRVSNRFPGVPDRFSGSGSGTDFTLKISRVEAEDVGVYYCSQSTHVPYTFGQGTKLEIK
Response: 6.00
